Data credit: patent US11981658B2

study_system: EGFR L858R/T790M/C797S (Homo sapiens, UniProt P00533, C797S/L858R/T790M)
Sequence (P00533 25-1210 T790M/C797S/L858R): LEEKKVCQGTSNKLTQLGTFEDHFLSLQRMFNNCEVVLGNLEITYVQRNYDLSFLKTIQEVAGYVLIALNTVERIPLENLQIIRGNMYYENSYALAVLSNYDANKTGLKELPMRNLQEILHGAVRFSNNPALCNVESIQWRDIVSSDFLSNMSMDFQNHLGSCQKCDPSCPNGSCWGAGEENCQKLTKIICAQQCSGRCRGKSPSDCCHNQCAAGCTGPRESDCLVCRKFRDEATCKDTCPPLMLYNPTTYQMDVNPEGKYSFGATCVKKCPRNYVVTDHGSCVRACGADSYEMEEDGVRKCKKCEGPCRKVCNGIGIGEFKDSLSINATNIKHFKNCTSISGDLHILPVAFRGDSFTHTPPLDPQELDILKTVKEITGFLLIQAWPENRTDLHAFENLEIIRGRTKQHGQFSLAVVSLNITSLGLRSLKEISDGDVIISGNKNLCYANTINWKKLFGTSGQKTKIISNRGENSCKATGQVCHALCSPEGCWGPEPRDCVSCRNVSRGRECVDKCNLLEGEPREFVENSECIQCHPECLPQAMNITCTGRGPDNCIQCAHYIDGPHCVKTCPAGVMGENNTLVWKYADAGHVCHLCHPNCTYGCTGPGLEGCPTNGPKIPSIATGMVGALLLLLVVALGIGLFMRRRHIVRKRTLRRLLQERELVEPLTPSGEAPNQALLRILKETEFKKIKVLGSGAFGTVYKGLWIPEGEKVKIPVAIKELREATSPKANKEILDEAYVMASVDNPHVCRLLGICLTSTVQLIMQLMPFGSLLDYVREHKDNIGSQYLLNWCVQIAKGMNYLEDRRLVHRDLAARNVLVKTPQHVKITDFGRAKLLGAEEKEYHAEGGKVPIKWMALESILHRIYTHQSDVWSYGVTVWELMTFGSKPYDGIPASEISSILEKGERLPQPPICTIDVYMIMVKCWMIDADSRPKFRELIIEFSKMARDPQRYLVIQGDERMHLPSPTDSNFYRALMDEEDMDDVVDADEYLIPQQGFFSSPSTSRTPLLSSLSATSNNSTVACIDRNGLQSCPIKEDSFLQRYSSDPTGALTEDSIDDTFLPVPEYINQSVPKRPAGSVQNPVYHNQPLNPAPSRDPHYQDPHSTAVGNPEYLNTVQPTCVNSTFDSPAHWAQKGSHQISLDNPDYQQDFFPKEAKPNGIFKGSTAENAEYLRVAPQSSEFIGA
protocol_description: Biochemical EGFR kinase inhibition assay (Lance Ultra TR-FRET), triple mutant L858R/T790M/C797S
condition_info: Km ATP; read-out: IC50 L858R/T790M/C797S (nM), Km ATP
IC50 strictly less than 0.6 nM = met. Otherwise not met.

Worked examples follow.
CC1(O)CC2(CCN(c3cc(Nc4ccnc(-c5cnn(S(=O)(=O)C6CC6)c5)n4)ncc3C#Cc3cnn(CC(F)(F)F)c3)CC2)C1; not met
O=S(=O)(C1CC1)n1cc(-c2nccc(Nc3cc(N[C@H]4CC[C@@H](CO)CC4)c(C#Cc4cnn(CCF)c4)cn3)n2)cn1; met

Just wondering, is IC50 of CC1(CO)CCN(c2cc(Nc3ccnc(-c4cnn(S(=O)(=O)C5CC5)c4)n3)ncc2C#Cc2ccc(C(=O)N3CCC(O)CC3)cc2)CC1 below 0.6 nM?
met

Just wondering, is IC50 of CC1OCCC1C#Cc1cnc(Nc2ccnc(-c3cnn(S(=O)(=O)C4CC4)c3)n2)cc1N1CCC(C)(O)CC1 (stereo not shown) below 0.6 nM?
met

Just wondering, is IC50 of CC1(O)CCC(CNc2cc(Nc3ccnc(-c4cnn(S(=O)(=O)C5CC5)c4)n3)ncc2C#CC2CCCO2)CC1 (stereo not shown) below 0.6 nM?
not met

Just wondering, is IC50 of O=C(c1ccc(C#Cc2cnc(Nc3ccnc(-c4cnn(S(=O)(=O)C5CC5)c4)n3)cc2N2CCC[C@@H](O)C2)cc1)N1CCC(O)CC1 below 0.6 nM?
met
